# experiment description: H+/Na+ transport assay of purified peptides
# experimental parameters: read-out: H+/Na+ transport activity EC50; EYPC/EYPG (19:1) LUVs
Where a SMILES comes first, the peptide text is derived from it. [ ]: non-standard residue; d: D form. The star is where a group is joined. NHCH2CH2OH = OCCN*; For = O=C*
quantity measured: EC50 (nM)

>  <compound>
CC(C)C[C@@H](NC(=O)[C@H](C)NC(=O)CNC(=O)[C@@H](NC=O)C(C)C)C(=O)N[C@@H](C)C(=O)N[C@@H](C(=O)N[C@H](C(=O)N[C@@H](C(=O)N[C@@H](Cc1c[nH]c2ccccc12)C(=O)N[C@@H](C(=O)N[C@@H](Cc1c[nH]c2ccccc12)C(=O)N[C@@H](C(=O)N[C@@H](Cc1c[nH]c2ccccc12)C(=O)N[C@@H](C(=O)N[C@@H](Cc1c[nH]c2ccccc12)C(=O)NCCO)C(C)C)C(C)C)C(C)C)C(C)C)C(C)C)C(C)C [B03] (For-VGA[dL]A[dV]V[dV]W[dV]W[dV]W[dV]W-NHCH2CH2OH)

>  <observed measurement>
1.3

$$$$
